# credit: paper PMC5591402

Target or test system: N2.14
Method: FP
pKd: −log10 of the molar value. Where no end group is shown, it is not given here.

>  <Binder>
GYQDYEPEA (also: TAMRA fluorophore, position not given here) [TAMRA-labeled α-synuclein peptide]

>  <pKd>
7.79

$$$$
